Test system: SJSA-1 cells
Experiment: Cell lysis by peptidomimetic macrocycles (LDH release)
Type: cell-based
Settings: 25 μM, SJSA-1, 1 h
Bridge positions count the residues as written; N and C are the ends. Square brackets hold non-standard residues; d marks the D form. Peptide text beside a SMILES is read from it. Trp(6-Cl) = N[C@@H](Cc1c[nH]c2cc(Cl)ccc12)C(=O)O; R8 = C=CCCCCCC[C@@](C)(N)C(=O)O; S5 = C=CCCC[C@](C)(N)C(=O)O
Listed here are molecules together with their documented 25 μM % Lysed cells (1 h LDH).
readoutLabel: 25 μM % Lysed cells (1 h LDH)

{"columns": ["molecule", "resultValue"],
 "data": [
  ["CC(=O)N[C@@H](CC(C)C)C(=O)N[C@H](C(=O)N[C@@H](Cc1ccccc1)C(=O)N[C@]1(C)CCCCCC/C=C/CCC[C@@](C)(C(=O)N[C@@H](CO)C(=O)N[C@@H](C)C(=O)N[C@@H](C)C(N)=O)NC(=O)[C@H](CC(C)C)NC(=O)[C@H](CCC(N)=O)NC(=O)[C@H](C)NC(=O)[C@H](Cc2c[nH]c3cc(Cl)ccc23)NC(=O)[C@H](Cc2ccc(O)cc2)NC(=O)[C@H](C)NC1=O)[C@@H](C)O [compound 99] (Ac-LTF[R8]AY[Trp(6-Cl)]AQL[S5]SAA-NH2; staple (E) 4-11)", "2%"],
  ["CC(=O)N[C@@H](CC(C)C)C(=O)N[C@H](C(=O)N[C@@H](Cc1ccccc1)C(=O)N[C@]1(C)CCCCCCC=CCCC[C@@](C)(C(=O)N[C@@H](CO)C(=O)N[C@@H](Cc2c[nH]c3ccccc23)C(=O)N[C@@H](C)C(N)=O)NC(=O)[C@H](CC(C)C)NC(=O)[C@H](CCC(N)=O)NC(=O)[C@H](C)NC(=O)[C@H](Cc2c[nH]c3ccccc23)NC(=O)[C@H](Cc2ccc(O)cc2)NC(=O)[C@H](C)NC1=O)[C@@H](C)O (single isomer, unassigned)", "0%"],
  ["CCCC[C@H](NC(=O)[C@H](C)NC(=O)[C@H](C)NC(=O)[C@]1(C)CCCC=CCCCCCC[C@@](C)(NC(=O)[C@H](Cc2ccccc2)NC(=O)[C@@H](NC(=O)[C@H](CC(C)C)NC(C)=O)[C@@H](C)O)C(=O)N[C@@H](C)C(=O)N[C@@H](Cc2ccc(O)cc2)C(=O)N[C@@H](Cc2c[nH]c3ccccc23)C(=O)N[C@@H](Cc2cc(=O)oc3cc(OC)c(OC)cc23)C(=O)N[C@@H](CCC(N)=O)C(=O)N[C@@H](CC(C)C)C(=O)N1)C(=O)N[C@@H](C)C(N)=O", "2%"],
  ["CC[C@H](C)[C@H](NC(=O)[C@H](C)NC(=O)[C@H](C)NC(=O)[C@]1(C)CCCC=CCCCCCC[C@@](C)(NC(=O)[C@H](Cc2ccccc2)NC(=O)[C@@H](NC(=O)[C@H](CC(C)C)NC(C)=O)[C@@H](C)O)C(=O)N[C@@H](C)C(=O)N[C@@H](Cc2ccc(O)cc2)C(=O)N[C@@H](Cc2c[nH]c3ccccc23)C(=O)N[C@@H](C)C(=O)N[C@@H](CCC(N)=O)C(=O)N[C@@H](CC(C)C)C(=O)N1)C(=O)N[C@H](CC(C)C)C(N)=O (single isomer, unassigned) [compound 81]", "0%"]
]}
